Tested on: wheat germ agglutinin (Triticum aestivum), Alexa647-labelled
Assay: wheat germ agglutinin binders on compound microarrays, profiling panel, artefact control for SMM control-protein annotation, biochemical, small-molecule microarray, 635/667 nm fluorescence (AID 1140);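 further: score merges 667 nm feature emission with signal to noise over triplicate slides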
Conditions: WGA-A647 binding, 635 nm fluorescence, higher = more signal
Reported composite z-score values follow for various compounds
Just the number.

INSERT INTO measurements (linenotation, system, readoutname, recordedresult) VALUES
  ('CCCC=C(CCC)[C@@H](NC(=O)c1ccco1)c1ccc(C(=O)OC)cc1', 'wheat germ agglutinin (Triticum aestivum), Alexa647-labelled', 'composite z-score', 1.31),
  ('CC(C)C(=C=CC[C@@H](O)c1cccc(OCCO)c1)CCO', 'wheat germ agglutinin (Triticum aestivum), Alexa647-labelled', 'composite z-score', 0.271);

Next, consider the following compound.
Exercise: Any idea what composite z-score was measured for C=CCN1C(=O)[C@]2(O[C@H](CCn3cc([C@H](O)c4ccccc4)nn3)[C@@H]([Si](C)(C)c3ccc(OC)cc3)[C@@H]2C)c2cc(N3C(=O)c4cccc5cccc3c45)ccc21 ?
Key: 0.453

* * *

Biological target: Neurogenic locus notch homolog protein 2 (Homo sapiens)
Assay: Notch2 binders on small-molecule microarrays, primary screen, biochemical, small-molecule microarray, 635 nm fluorescence, stem cell growth factors (AID 1073)
Details: Notch2 binding, higher = more signal
Mark label 1 for reported composite z-score of 0.3 or greater; mark label 0 for anything smaller.

Example entries and their recorded answers appear below.
INSERT INTO assay_data (compound, classification) VALUES
  ('Cc1ccc(S[C@]2(C(=O)NCC(F)(F)F)CC(=O)N(C3CCCCC3)[C@@H]2c2ccc(CO)cc2)cc1', 'label 0'),
  ('COC(=O)[C@@]1(CCS(=O)(=O)c2ccccc2)N=C(c2ccc(OCCCO)cc2)O[C@H]1c1ccccc1N=[N+]=[N-]', 'label 1');

Exercise: Entry COC(=O)[C@@]1(Cc2ccccc2CN=[N+]=[N-])COC(c2ccc(OCCCO)cc2)=N1 : is its composite z-score no less than 0.3?
Key: label 0

Exercise: Entry CC(C)C(=C=CC[C@@H](O)c1cccc(OCCO)c1)CCO : is its composite z-score no less than 0.3?
Key: label 0

Exercise: Entry COC(=O)C(CC#Cc1ccc2c(c1)[C@]1(C(=O)N2)[C@H](c2ccc(O)cc2)N2[C@H](c3ccccc3)[C@H](c3ccccc3)OC(=O)[C@H]2[C@@H]1C(=O)N1CCc2cc(OC)c(OC)cc2C1)C(=O)OC : is its composite z-score no less than 0.3?
Key: label 1

Exercise: Entry COCC(=C=CC[C@@H](O)c1ccc(OCCO)cc1)C[C@@H](O)COCc1ccccc1 : is its composite z-score no less than 0.3?
Key: label 1

Exercise: Entry CCOC(=O)C1=C[C@@H](C(C)(C)C)N(S(=O)(=O)c2ccc(C)cc2)[C@H]1c1ccccc1Cl : is its composite z-score no less than 0.3?
Key: label 1

Exercise: Entry C=CC[C@]1(C(=O)N(C)C)COC(c2ccc(OCCCO)cc2)=N1 : is its composite z-score no less than 0.3?
Key: label 0

Exercise: Entry C=CCC(OC(C)=O)[C@@H]1[C@@H](N(Cc2cccc3ccccc23)C(=O)c2cccc3ccccc23)c2cc(OCCCO)ccc2N1C(=O)Cc1ccc2ccccc2c1 (stereo not given in full) : is its composite z-score no less than 0.3?
Key: label 0

Exercise: Entry CC(C)(C)OC(=O)CC[C@]1(C(=O)N2CCOCC2)N=C(c2ccc(OCCCO)cc2)O[C@H]1c1ccccc1CN=[N+]=[N-] : is its composite z-score no less than 0.3?
Key: label 1

* * *

Biological target: Torsin-1A-interacting protein 2 (Homo sapiens) (UniProt Q8NFQ8)
Sequence (Q8NFQ8 whole entry, looked up): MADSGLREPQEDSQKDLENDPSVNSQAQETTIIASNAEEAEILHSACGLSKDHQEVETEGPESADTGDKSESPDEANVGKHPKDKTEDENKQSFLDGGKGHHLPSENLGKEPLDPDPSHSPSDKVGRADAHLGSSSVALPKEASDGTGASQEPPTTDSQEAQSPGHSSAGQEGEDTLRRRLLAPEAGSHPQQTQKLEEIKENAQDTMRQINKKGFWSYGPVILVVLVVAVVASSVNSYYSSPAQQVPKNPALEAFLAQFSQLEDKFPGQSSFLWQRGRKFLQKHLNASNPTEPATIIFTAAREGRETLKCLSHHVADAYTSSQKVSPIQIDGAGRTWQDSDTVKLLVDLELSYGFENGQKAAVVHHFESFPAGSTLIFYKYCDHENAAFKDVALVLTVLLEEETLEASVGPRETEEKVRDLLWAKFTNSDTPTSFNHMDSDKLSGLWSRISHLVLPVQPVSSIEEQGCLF
Test: LULL1 binders on small-molecule microarray, primary screen, cell lysate, human LULL1 lysate, 635/667 nm fluorescence (AID 1092);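 further: probe is lysate of COS7 cells overexpressing human LULL1; score merges per-feature 667 nm fluorescence with signal-to-noise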
Details: hLULL1 lysate binding, 635 nm fluorescence, higher = more signal
Mark Condition met for reported composite z-score of 2 or greater; mark Condition not met for anything smaller.

INSERT INTO results (compound, system, classification) VALUES
  ('CC(c1ccccc1)C(O)C1C=CC2C(=O)N(c3ccccc3)C(=O)C2N1Nc1ccc(C#N)cc1 (stereo not drawn)', 'Torsin-1A-interacting protein 2 (Homo sapiens) (UniProt Q8NFQ8)', 'Condition met'),
  ('CC(C)C[C@H]1NC(=O)[C@@]23C(=O)N[C@@H](Cc4ccccc4)C2[C@H](C)[C@@]2(C)O[C@H]2C3/C=C/C/C=C\CNC(=O)[C@@H]2CCCN2C1=O (stereo partly drawn)', 'Torsin-1A-interacting protein 2 (Homo sapiens) (UniProt Q8NFQ8)', 'Condition not met'),
  ('Cc1ccc(F)cc1S(=O)(=O)N[C@@H]1CCN(Cc2ccc3c(c2)OCO3)C1', 'Torsin-1A-interacting protein 2 (Homo sapiens) (UniProt Q8NFQ8)', 'Condition not met'),
  ('C=C(COC)/C(=C/C[C@@H](OC(C)=O)c1ccccc1OCCO)c1cc(C(=O)OC)ccc1OC', 'Torsin-1A-interacting protein 2 (Homo sapiens) (UniProt Q8NFQ8)', 'Condition not met'),
  ('COCCCNC(=O)[C@@]1(Sc2ccc(C)cc2)CC(=O)N(C2CCCCC2)[C@@H]1c1ccc(CO)cc1I', 'Torsin-1A-interacting protein 2 (Homo sapiens) (UniProt Q8NFQ8)', 'Condition met'),
  ('CC(C)(C)N1CC=CC23O[C@@H]4/C=C\CCCOC(=O)C4[C@H]2C(=O)N(CCCCCCO)[C@@H]3C1=O (stereo partly drawn)', 'Torsin-1A-interacting protein 2 (Homo sapiens) (UniProt Q8NFQ8)', 'Condition not met');

Exercise: Entry CN(C)CCCC[C@@H]1NC(=O)[C@H]2C[C@@H](C(=O)NCc3ccc(F)cc3)[C@@H](c3ccc(O)cc3)N2C1=O : is its composite z-score no less than 2?
Key: Condition not met

Exercise: Entry CC(C)c1ccc(NN2C(C(O)C(C)C)C=CC3C(=O)N(c4ccccc4)C(=O)C32)cc1 (stereo not drawn) : is its composite z-score no less than 2?
Key: Condition met

* * *

Reported z-score values follow for various compounds
Test: HepG2 liver cancer cell viability effects, profiling panel, resazurin fluorescence, 24 h, PK04 Diversity Set (AID 1172); further: test concentration not given here
Details: higher = more signal
Just the number.

INSERT INTO measurements (linenotation, recordedresult) VALUES
  ('NCCCC[C@@H]1NC(=O)[C@H]2C[C@@H](C(=O)O)[C@@H](c3cccc(OCCO)c3)N2C1=O', -0.578);

Exercise: Any idea what z-score was measured for COCCOC(=O)N1C(=O)[C@@]2(c3cc(C#CCNC(N)=O)ccc31)[C@H](C(=O)NC[C@H](O)c1ccccc1)[C@H]1C(=O)O[C@H](c3ccccc3)[C@H](c3ccccc3)N1[C@@H]2c1ccc(OCCO)cc1 ?
Key: 0.774

Exercise: Any idea what z-score was measured for CN(C)C(=O)[C@]1(Cc2ccccc2CN=[N+]=[N-])N=C(c2ccc(OCCCO)cc2)O[C@@H]1c1ccccc1N=[N+]=[N-] ?
Key: 0.142

Exercise: Any idea what z-score was measured for COC(=O)[C@@]1(Cc2ccccc2CN=[N+]=[N-])COC(c2ccc(OCCCO)cc2)=N1 ?
Key: -0.639

* * *

Reported z-score values follow for various molecules
Assay: MM1S myeloma cell viability, profiling panel, resazurin fluorescence, basal, 24 h, PK04 Diversity Set (AID 1174);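 further: MM1S multiple myeloma cell line; test concentration not given here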
Details: higher = more signal, called active from +8 up or from −8 down
Just the number.

Field: example entries. Status: answers known.
INSERT INTO assay_data (molecule, readoutname, recordedresult) VALUES
  ('CC(C)N1CC=CC23O[C@@H]4C=CCCOC(=O)C4[C@H]2C(=O)N(CCCCCO)[C@@H]3C1=O (some centres undefined)', 'z-score', 0.988),
  ('C=CCC(OC(C)=O)[C@@H]1[C@@H](N(Cc2cccc3ccccc23)C(=O)c2ccc(-c3ccccc3)cc2)c2cc(OCCCO)ccc2N1C(=O)c1ccc2ccccc2n1 (some centres undefined)', 'z-score', 0.623),
  ('COC(=O)[C@@]1(Cc2ccc(F)cc2)[C@H]2c3cc(C(=O)N4CCCC4)n(CCO)c3C[C@H]2CN1C(=O)c1ccccc1', 'z-score', -1.38);

Next, consider the following molecule.
Exercise: Any idea what z-score was measured for COc1ccc(CCNC(=O)[C@@]2(Sc3ccc(C)cc3)CC(=O)N(C(C)C)[C@@H]2c2ccc(CO)cc2)cc1 ?
Key: -0.416

* * *

Target: NADPH oxidase 4 (Homo sapiens) (UniProt Q9NPH5)
Sequence (Q9NPH5 whole entry, looked up): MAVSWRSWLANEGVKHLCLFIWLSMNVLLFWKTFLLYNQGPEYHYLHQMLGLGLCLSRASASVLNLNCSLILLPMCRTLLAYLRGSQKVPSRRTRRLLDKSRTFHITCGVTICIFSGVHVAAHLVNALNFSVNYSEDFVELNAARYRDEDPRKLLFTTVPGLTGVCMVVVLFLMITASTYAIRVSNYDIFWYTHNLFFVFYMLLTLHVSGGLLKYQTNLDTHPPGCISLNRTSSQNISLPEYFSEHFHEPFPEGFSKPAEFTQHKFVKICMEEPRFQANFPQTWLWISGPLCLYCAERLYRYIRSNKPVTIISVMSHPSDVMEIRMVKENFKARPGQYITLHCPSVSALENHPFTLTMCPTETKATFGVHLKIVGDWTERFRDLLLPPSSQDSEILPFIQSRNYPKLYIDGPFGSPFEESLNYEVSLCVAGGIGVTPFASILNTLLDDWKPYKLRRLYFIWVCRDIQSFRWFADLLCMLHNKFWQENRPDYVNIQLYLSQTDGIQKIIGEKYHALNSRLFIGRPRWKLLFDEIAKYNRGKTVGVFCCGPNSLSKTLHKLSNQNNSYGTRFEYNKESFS
Assay: NOX4-dependent H2O2 signal modulators, primary screen, NOX inhibitor project, cell-based, HEK293-NOX4, tetracycline-induced, Amplex Red fluorescence (AID 1160)
Details: 45 min, higher = more signal, called active from +8 up or from −8 down
Mark criterion met for reported z-score of 0.7 or greater; mark criterion not met for anything smaller.

INSERT INTO assay_data (linenotation, classification) VALUES
  ('Cc1ccc(S(=O)(=O)N2[C@@H](c3ccccc3)C(C(=O)O)=CC[C@H]2c2ccc(C#N)cc2)cc1', 'criterion not met'),
  ('NCCCC[C@@H]1NC(=O)[C@H]2C[C@@H](C(=O)NCc3ccc(F)cc3)[C@@H](c3ccc(O)cc3)N2C1=O', 'criterion met'),
  ('Cc1ccc(S[C@]2(C(=O)NC3CC3)CC(=O)N(Cc3cc(C(F)(F)F)cc(C(F)(F)F)c3)[C@@H]2c2ccc(CO)cc2I)cc1', 'criterion not met');

Exercise: Entry C=CC[C@@]1(C(=O)N(C)C)N=C(c2ccc(OCCCO)cc2)O[C@@H]1c1ccccc1 : is its z-score no less than 0.7?
Key: criterion met

Exercise: Entry CCOC(=O)C[C@H]1[C@H](OC(=O)c2ccc(-c3ccccc3)cc2)[C@@H](NC(=O)CC(C)C)c2cc(OCCCO)ccc2N1C(=O)Cc1ccc(OC)cc1 : is its z-score no less than 0.7?
Key: criterion met

Exercise: Entry CCc1cccc(NC(=O)O[C@H]2[C@H](OC(=O)Nc3ccc4c(c3)OCO4)[C@H](OC(=O)Nc3ccc4c(c3)OCO4)[C@@H](OC)O[C@@H]2CO)c1 : is its z-score no less than 0.7?
Key: criterion not met

Exercise: Entry C#CCN([C@H](/C=C/C1CC1)[C@@H](O)Cc1ccccc1)[C@@H](Cc1ccccc1)C(=O)OC : is its z-score no less than 0.7?
Key: criterion not met
